Recorded z-score, one value per entry.
Assay: Components of the Cytosolic LPS Sensing Pathway: Gene Identification via Genome-wide siRNA Screen;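 note: robust z of the log signal after scaling to non-targeting control siRNA wells of the plate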
Settings: RAW264.7 macrophages, IL-1a HTRF, actives lie on both sides, screened at 100 nM (by protocol), cells primed 5 h with Pam3CSK4 first
About 3,700 (7%) of roughly 53,000 sequences were called active. The full list was thinned out, with actives kept by preference.
metricName: z-score

residues="GGUUGUAAGGAACUCUUGGTT against Slc22a29" readoutvalue=-0.628
residues="GCAGAACACCGCUGGAAGUTT against Pard3" readoutvalue=3.14
residues="GGGUGCAAACAAAAUGAUGTT against Pgm1" readoutvalue=-1.42
residues="GCACACUGAUGAACUUACCTT against Ston2" readoutvalue=2.55
residues="GUAGAAGAUGGAAUUUUUGTT against Rpl22l1" readoutvalue=0.048
residues="GGCGUGUAUCUAUACACACTT against Glp1r" readoutvalue=3.1
residues="GGAACUCAAAUUGAAAAGGTT against Manea" readoutvalue=-0.135
residues="GAUGCGGCUCCUUGGAAUUTT against Slc51b" readoutvalue=2.38
residues="GCUAGAAGCUUUCUAUUCUTT against Hsph1" readoutvalue=1.68
residues="GGAAAAAUAGGUCGAAUGATT against Arntl" readoutvalue=0.229
residues="GGGUGUUGUGUCCUCUCAATT against Gckr" readoutvalue=0.0744
residues="GCUAUCUCGGUGUCAACUUTT against Aqp7" readoutvalue=-1.26

====

Assay: Components of the Cytosolic LPS Sensing Pathway: Gene Identification via Genome-wide siRNA Screen;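 note: robust z of the log signal after scaling to non-targeting control siRNA wells of the plate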
Details: RAW264.7 macrophages, IL-1a HTRF, actives lie on both sides, screened at 100 nM (by protocol), cells primed 5 h with Pam3CSK4 first
In all, about 53,000 sequences went through this assay and about 3,700 (7%) were called active. This is one part of a sample in which actives are shown more often than they occur.
hey, just use Y if measured z-score is less than -0.05, otherwise N

residues="CCAAUACUACAUAAUGUCUTT against Abcc12" category=Y
residues="GGAAAAGAUAGAGUUACUUTT against Lrif1" category=N
residues="GGUCAGCAUUAUCAAGCCUTT against Hsd11b2" category=N
residues="CCUAAGUUCCUGAAAAUAUTT against Epha5" category=Y
residues="GCUACCUCUGACGACCAAGTT against Slc23a3" category=N
residues="GGUCAAUUGUCCAUAUGACTT against Tox3" category=Y
residues="GGAAGUUGUUGGGAACUUCTT against Afmid" category=Y
residues="GGAGUCUUGGCCCUUUAAUTT against Zcchc12" category=Y
residues="UGAUGCUAAGACUGAACCATT against Olfr541" category=Y
residues="GGCUUUGUCGUUAAUUUUUTT against Auh" category=N
residues="GCUAGGUGAUCAGAGAACUTT against Nsl1" category=N

====

Test: Components of the Cytosolic LPS Sensing Pathway: Gene Identification via Genome-wide siRNA Screen;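 note: robust z of the log signal after scaling to non-targeting control siRNA wells of the plate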
Settings: RAW264.7 macrophages, IL-1a HTRF, actives lie on both sides, screened at 100 nM (by protocol), cells primed 5 h with Pam3CSK4 first
Screen size: about 53,000 sequences; about 3,700 (7%) were called active. Shown is part of a subset that was picked to be rich in actives.
Recorded z-score, one value per entry.
metricName: z-score

residues="GGAAGUGAGAAGAUGGAUATT against Fam163b" metricname=z-score readoutvalue=0.93
residues="GCAGGUUAAGUAGCUGACATT against Dync1li2" metricname=z-score readoutvalue=-2.37
residues="GGAGUUGUCUACCAAAGUUTT against Reep5" metricname=z-score readoutvalue=0.609
residues="GGGAAACUCUGUCCAAUUGTT against Eif2d" metricname=z-score readoutvalue=0.402
residues="GGUCACCCUGUUUAGGCCUTT against Fgd3" metricname=z-score readoutvalue=0.571
residues="GCGCACAAAAAACAUGAUATT against Plaat5" metricname=z-score readoutvalue=0.211
residues="GCUAACUGCACUCCGAGAUTT against Asap1" metricname=z-score readoutvalue=-0.266
residues="GUACGUCAAGAGCCUGCGUTT against Fam110a" metricname=z-score readoutvalue=-2.65
residues="GCACCUCCUUAUGUGUCAUTT against Chrm2" metricname=z-score readoutvalue=0.729
residues="GGUCCUCUGGUUCAACAUUTT against Olfr638" metricname=z-score readoutvalue=-0.405
residues="GGCUUUACGAGGAAAAAGGTT against Pex1" metricname=z-score readoutvalue=2.09
residues="GGAAAUGCCAUUUGAUUUGTT against Rfpl4" metricname=z-score readoutvalue=0.599
residues="UCAAACUAGGUGCUGUUGUTT against Olfr584" metricname=z-score readoutvalue=0.998
residues="GGAUGCAGAGAAGAAUCUGTT against Psmd6" metricname=z-score readoutvalue=-2.65
residues="GGGCACAAAGAUAUGAAUATT against Lgals3bp" metricname=z-score readoutvalue=0.147
residues="GGAACAAUGCUCAAUUUUUTT against Rfc1" metricname=z-score readoutvalue=1.63
residues="CCAUCAUGCCCUGUUUGCATT against Cdc42ep3" metricname=z-score readoutvalue=0.393
residues="CCCACUGAUGAUUACGUUCTT against Irf5" metricname=z-score readoutvalue=-0.247
residues="GGAUUUAUUUGCCAACACUTT against Actbl2" metricname=z-score readoutvalue=-2.28
residues="CGAUUGAUGAAUCUGGUUCTT against Racgap1" metricname=z-score readoutvalue=-0.31
residues="GGGAACAGUAUCUGAUUCATT against Polg" metricname=z-score readoutvalue=2.35
residues="CCAACAAAAGCCUAUUCGGTT against Hsh2d" metricname=z-score readoutvalue=-0.169
residues="GGACAGUUCAGAACAAAUUTT against Ccbe1" metricname=z-score readoutvalue=-0.168
residues="GGUGACUUCGGAGAAAAGGTT against Sncaip" metricname=z-score readoutvalue=0.257
residues="CGUGGUCAGCGAGAGAGAATT against Sohlh1" metricname=z-score readoutvalue=1.19

====

Test: Components of the Cytosolic LPS Sensing Pathway: Gene Identification via Genome-wide siRNA Screen;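 note: robust z of the log signal after scaling to non-targeting control siRNA wells of the plate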
Conditions: RAW264.7 macrophages, IL-1a HTRF, actives lie on both sides, screened at 100 nM (by protocol), cells primed 5 h with Pam3CSK4 first
About 3,700 (7%) of roughly 53,000 sequences were called active. This is one part of a sample in which actives are shown more often than they occur.
Categorized via z-score: A (below -0.8), B (-0.8 to below 0.5), C (0.5 or more)

residues="GGUCUUCUUCGUGUUCAUCTT against Olfr281" category=B
residues="CCGGAUUCGAGAGGUGAUGTT against Lrrc52" category=B
residues="CCGAGGUGAUUAGGAUAACTT against Traf3ip1" category=B
residues="GCUUCUAUUUUGGAUGAUGTT against Skint10" category=A
residues="GGAAUGGGCAGUAUGAGUUTT against Ocrl" category=A
residues="GGAGAGCUGCAUCAAAAAGTT against Prdm16" category=C
residues="GGGCCUCAUCUUUGUGGUATT against Arf5" category=B
residues="GGUGUAAUUGGGAAAAUUCTT against Inpp5f" category=A
residues="GGCUGUUUUCUAUCCUAGGTT against Cd207" category=A
residues="GGACAUAAAACUUUUCAGUTT against Foxf2" category=C
residues="GCAUAAUAAGCCAAUUCUGTT against Med17" category=B
residues="GGUCAUUUGUUUUCAGGGATT against Tfdp2" category=C
residues="GCCGAACGUGUUUAAACUCTT against Psd3" category=B
residues="GGAGUUAAUCAGUCAAAUGTT against Dclk2" category=C
residues="CGUAUCAACAUCUCAGAAGTT against Pcbp2" category=B
residues="GGCCCUCAAACAGUGCAAATT against Chchd10" category=C
residues="GCUACAGAUUAGGGACAUATT against Pcdhb2" category=C
residues="GUAAUUCACAGCCUCUCCGTT against Pitx3" category=C
residues="GGUUGUGACUACACUAUGGTT against Zfp456" category=A
residues="GUGGUUGAACGGGAAUUUGTT against Gm11487" category=C
residues="GGCCAGACACUACAGGUAATT against Aldh16a1" category=B
residues="GGUCUCUGUACUUUGACUGTT against Cldn19" category=A
residues="CGAGGUGCUAAUCUGGCCUTT against Dctpp1" category=B
residues="GGUGCUGCUAUUCCUGCACTT against Gpam" category=A
residues="GGAACAACUUUCAUCUCACTT against Anxa10" category=C
residues="CCUUUUCAAGCUAACAACATT against Gba2" category=B
residues="CCGGUCAAAAUUGAAAAGGTT against Bves" category=C
residues="GGAGCAAUUCUACCGCUACTT against Fbxw5" category=A
residues="GGCACACAAUUUUCACUGATT against Pcdhb9" category=B
residues="CGUUGUCAAAAGGACCCAUTT against Pvr" category=B
residues="GGCAAUGUCUUUAAAAUACTT against Txndc8" category=B
residues="CGUCAUAAAGAAUAGUUCCTT against Ncoa4" category=C
residues="GGCACCUCUGCUUUUAAAGTT against Mrm2" category=C
residues="GGGAAGUUGUCCUUGAAGATT against Cd36" category=B
residues="CCUGCCAUAGUUAGUUUUUTT against Khdc1a" category=C
residues="GCAUGAAUUGUGGAAGAGATT against Csnk1a1" category=C
residues="CCAAAGGUGACCACAGAUUTT against Zfp444" category=C
residues="GGAACAAAGAGUUUAAGGATT against Olfr1415" category=B
residues="GUUCUAUGGUAGACAUUAUTT against Gm5414" category=A
residues="GGAAGCUUACAUUGUGAAGTT against Unc5c" category=B
residues="GGUGGACAAGAUGAUGGAATT against Gps2" category=C
residues="GGGAGGUGUCUUUACGUCUTT against Neto1" category=B
residues="GCAUCAUACUGACCUGAGATT against Gml2" category=A
residues="GGUGGUCUACUUCACCGCATT against Slc6a20a" category=B
residues="GGCUUCCAGUAAUGACAAUTT against Vwc2l" category=A
residues="CCAUUCUUGCCUUUGUGCUTT against Cep55" category=A
residues="GCUCUAUGGAUCCUUGGAGTT against Zfp574" category=C
residues="GGGAAAGAAUGGUGUGGAATT against Dlx4" category=A
residues="GGUAUGAUGAACAGUCCAGTT against Ep300" category=A
